What pIC50 was measured for each of the following?
molecular target: HIV-integrase (Human immunodeficiency virus type 1 group M subtype B, UniProt P12497); construct: Recombinant integrase (0.26 ng) was incubated with the beads; test: HIV-Integrase Inhibition Activity (SPA bead strand transfer assay); conditions: recombinant integrase, in vitro
pIC50: −log10 of the molar value.

Illustrative cases are given below, each with its answer.
Respond only with pIC50 recorded for `Cc1cc(CNC(=O)c2nc3n(c(=O)c2O)CC(=O)N(C)N3C)ccc1F`
4.31 to 7.80

Determine its reported pIC50: `O=C(NCc1ccc(Cl)c(Cl)c1)c1nc2n(c(=O)c1O)CCS2`
7.82 to 8.40

Please report the measured pIC50 for `O=C(NCc1ccc(F)cc1)c1nc2n(c(=O)c1O)CCS2`
7.82 to 8.40

Output measured pIC50 for this item: `Cc1ccc(CNC(=O)c2nc3n(c(=O)c2O)CCC(=O)N3C)cc1C`
4.31 to 7.80

Continue with the molecule presented below.
Entry `Cc1ccc(CNC(=O)c2nc3n(c(=O)c2O)CC(=O)N3C)cc1C` needs its pIC50 filled in; supply it.
4.31 to 7.80

====

Exercise: state measured melting point for each of the compounds provided.

# count of solved cases: 2
Quickly give me recorded melting point for Cc1cc(CNC(=O)c2nc3n(c(=O)c2O)CC(=O)N3)ccc1F [Example 3]
287 °C (dec.)

Find the measured melting point of CN1C(=O)CCn2c1nc(C(=O)NCc1ccc(F)cc1)c(O)c2=O [Example 18] and report it.
176 to 178 °C

Then this compound:
For the compound O=C1Cn2c(nc(C(=O)NCc3ccc(Cl)c(Cl)c3)c(O)c2=O)N1 [Example 2] , report melting point.
280 °C (dec.)
